# Experimental system: Estrogen receptor (Homo sapiens)
# Test description: qHTS assay to identify small molecule agonists of the estrogen receptor alpha (ER-alpha) signaling pathway (AID 743075);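 note: HEK293 GripTite cells with ER-alpha and UAS-driven beta-lactamase reporter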
# Particulars: HEK293 ER-alpha-UAS-bla, beta-lactamase FRET ratio, 18 h; series mostly up to 70.1 µM
Active and inactive are the calls of the source. Calls come from the whole dose curve.
Hi there, use one of these labels in your reply, thanks! active, inactive

Answered cases to consult:
Compound	Discrete label
CC[C@@H](O)C(C[C@@H](C)N(C)C)(c1ccccc1)c1ccccc1	inactive
Cc1ccc2c(c1)[C@]13CCCC[C@@H]1[C@H](C2)N(C)CC3	inactive
CN1C2CCC1CC(OC(c1ccccc1)c1ccc(Cl)cc1)C2 (configuration not stated)	inactive

(Q) What is the recorded call for this compound in the test? `C[C@]12CC[C@H]3[C@@H](CCC4=CC(=O)CC[C@@]43C)[C@@H]1CC[C@@H]2OC(=O)CCc1ccccc1`
(A) active

(Q) What is the recorded call for this compound in the test? CNC(C)[C@@H]1CC[C@@H](N)[C@@H](O[C@H]2[C@H](O)[C@@H](O[C@H]3OC[C@](C)(O)[C@H](NC)[C@H]3O)[C@H](N)C[C@@H]2N)O1 (some centres not stated)
(A) inactive

(Q) What is the recorded call for this compound in the test? `COc1cc(C[C@H](C)N)c(OC)cc1Br`
(A) inactive

(Q) What is the recorded call for this compound in the test? CC(=O)O[C@H]1C[C@H](O[C@H]2[C@@H](O)C[C@H](O[C@H]3[C@@H](O)C[C@H](OC4CC[C@@]5(C)C(CC[C@@H]6[C@@H]5CC[C@]5(C)[C@@H](C7=CC(=O)OC7)[C@@H](O)C[C@]65O)C4)O[C@@H]3C)O[C@@H]2C)O[C@H](C)[C@H]1O[C@@H]1O[C@H](CO)[C@@H](O)[C@H](O)[C@H]1O (some centres not stated)
(A) inactive

###

# Test description: qHTS assay to identify small molecule antagonists of the estrogen receptor alpha (ER-alpha) signaling pathway - cell viability counter screen (AID 743074);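 note: HEK293 cells carrying ER-alpha-UAS-bla reporter stimulated with 17beta-estradiol; nearly all actives have a fitted effect of over 45% in size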
# Particulars: ERalpha-bla HEK293 viability, CellTiter-Glo luminescence, 18 h; series mostly up to 69.4 µM
Results filed as inconclusive are left out. Active and inactive are the calls of the source. The call rests on the fitted dose curve.
Hi there, use one of these labels in your reply, thanks! 1 (yes) (active), 0 (no) (inactive)

(Q) What is the recorded call for this molecule in the test? CN1C2CCC1CC(OC(c1ccccc1)c1ccc(Cl)cc1)C2 (centres undefined)
(A) 1 (yes)

###

# Experimental system: Acetylcholinesterase (Homo sapiens) (UniProt P22303)
# Sequence (P22303 whole entry, looked up): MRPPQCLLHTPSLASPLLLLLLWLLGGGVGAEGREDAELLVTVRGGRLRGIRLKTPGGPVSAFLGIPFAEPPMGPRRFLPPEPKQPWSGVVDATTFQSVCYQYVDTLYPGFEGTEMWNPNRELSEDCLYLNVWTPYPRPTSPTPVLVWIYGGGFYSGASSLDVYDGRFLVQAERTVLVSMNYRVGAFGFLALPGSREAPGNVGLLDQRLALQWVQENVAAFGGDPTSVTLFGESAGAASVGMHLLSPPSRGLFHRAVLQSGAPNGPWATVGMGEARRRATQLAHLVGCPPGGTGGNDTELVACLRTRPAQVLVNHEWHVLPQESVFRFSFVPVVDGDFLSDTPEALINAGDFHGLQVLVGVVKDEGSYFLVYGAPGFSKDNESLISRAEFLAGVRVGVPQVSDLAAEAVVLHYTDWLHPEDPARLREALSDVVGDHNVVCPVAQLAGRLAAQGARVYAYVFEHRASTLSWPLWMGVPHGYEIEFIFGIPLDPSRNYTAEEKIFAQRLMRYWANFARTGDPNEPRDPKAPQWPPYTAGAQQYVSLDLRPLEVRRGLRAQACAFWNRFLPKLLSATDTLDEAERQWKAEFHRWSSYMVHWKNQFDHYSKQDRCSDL
# Test description: Acetylcholinesterase (AChE) small molecule antagonists: fluorescence cell-based qHTS assay (AID 1347398); note: nearly all actives have a fitted effect of over 50% in size
# Particulars: SH-SY5Y cells; AChE activity; series mostly up to 115 µM
Records with an inconclusive call do not appear. Activity calls are given as the source filed them. Calls follow the shape of the full dose curve.
Hi there, use one of these labels in your reply, thanks! 1 for active, -1 for inactive

Compound	Discrete label
COc1cc(-c2ccc(N=C=O)c(OC)c2)ccc1N=C=O	-1

(Q) What is the recorded call for this compound in the test? `COc1cc(C(=O)OCCCN2CCCN(CCCOC(=O)c3cc(OC)c(OC)c(OC)c3)CC2)cc(OC)c1OC`
(A) -1

(Q) What is the recorded call for this compound in the test? `CC(C)(C)c1ccc(N)cc1`
(A) -1

(Q) What is the recorded call for this compound in the test? `CC(C)(O)c1ccccc1`
(A) -1

(Q) What is the recorded call for this compound in the test? `CCCCOCC`
(A) -1

(Q) What is the recorded call for this compound in the test? `Oc1cccc2c(O)cccc12`
(A) -1

(Q) What is the recorded call for this compound in the test? CC(C)OC(=O)c1cc2c(OCC(O)CNC(C)(C)C)cccc2[nH]1 (stereo not drawn)
(A) -1

(Q) What is the recorded call for this compound in the test? `CC(C)(C)c1cc(C=O)cc(C(C)(C)C)c1O`
(A) -1

(Q) What is the recorded call for this compound in the test? `CN1CCN(c2ccccc2/C=C2\SCCN(c3ccc(Cl)c(Cl)c3)C2=O)CC1`
(A) 1

(Q) What is the recorded call for this compound in the test? `CN(C)CCOCCO`
(A) -1

(Q) What is the recorded call for this compound in the test? CC(C(=O)O)c1ccc2c(c1)Cc1cccnc1O2 (stereo not drawn)
(A) -1

(Q) What is the recorded call for this compound in the test? `COc1ccc2cc(CCC(C)=O)ccc2c1`
(A) -1

(Q) What is the recorded call for this compound in the test? CCCCCC(C)OC(=O)COc1ccc(Cl)c2cccnc12 (stereo not drawn)
(A) -1
